Numbers sourced from ChEMBL document CHEMBL1122762.

Test system: L1210 (1565)
EXPERIMENT: Compound was evaluated for cytotoxicity against L-1210 cells, and concentration required to inhibit the growth of treated cells to 50% of untreated control.
Assay type: functional, cell-based
COND: Mus musculus
pIC50: −log10 of the molar value.
Measured pIC50 accompanies every entry in the list below.
REPORTED ENDPOINT: pIC50

# COMPOUND, OBSERVED VALUE
data = [
    ("Nc1nccc2c1ncn2[C@@H]1C[C@H](CO)[C@H](O)C1O (some centres not stated)", 5.40),
    ("Nc1ncnc2c1ccn2[C@@H]1C[C@H](CO)[C@H](O)C1O (some centres not stated)", 5.40),
]
